- Test System: recombinant human PAI-1 (Homo sapiens)
- Construct: purchased Molecular Innovations, Inc
- Measurement Notes: Test Example 2: human PAI-1 inhibitory activity (tPA fluorogenic substrate, pH 7.4 HEPES buffer)
- Type: biochemical
- Run Conditions: human PAI-1; compound concentration 0.3 μM
Measure Name: Inhibition Rate of PAI-1 Activity (%)
Reply with just the number (in %).

Challenge: Consider the molecule shown here: CCCCOc1ccc(Oc2cc(-c3ccc(OC(F)(F)F)cc3)ccc2CCC(=O)O)cc1 What is its recorded Inhibition Rate of PAI-1 Activity (%)?
Response given: 26

Challenge: Consider the molecule shown here: CC(C)c1ccccc1Oc1cc(-c2ccc(OC(F)(F)F)cc2)ccc1OCC(=O)O What is its recorded Inhibition Rate of PAI-1 Activity (%)?
Response given: 7

Challenge: Consider the molecule shown here: CC(C)(C)c1ccc(Oc2cc(-c3ccc(OC(F)(F)F)cc3)ccc2CCCC(=O)O)cc1 What is its recorded Inhibition Rate of PAI-1 Activity (%)?
Response given: 36

Challenge: Consider the molecule shown here: CC(C)c1ccc(-c2ccc(/C=C/C(=O)O)c(Sc3ccc(C(C)(C)C)cc3)c2)cc1 What is its recorded Inhibition Rate of PAI-1 Activity (%)?
Response given: 72

Challenge: Consider the molecule shown here: O=C(O)COc1ccc(-c2ccc(OC(F)(F)F)cc2)cc1Oc1ccc(OCc2ccccc2)cc1 What is its recorded Inhibition Rate of PAI-1 Activity (%)?
Response given: 20

Challenge: Consider the molecule shown here: O=C(O)/C=C/c1ccc(-c2ccc(OC(F)(F)F)cc2)cc1Oc1ccc(OC(F)(F)F)cc1 What is its recorded Inhibition Rate of PAI-1 Activity (%)?
Response given: 21

Challenge: Consider the molecule shown here: O=C(O)CCCCCCCCOc1ccc(-c2ccc(OC(F)(F)F)cc2)cc1N(CCCCc1ccccc1)C(=O)C(=O)O What is its recorded Inhibition Rate of PAI-1 Activity (%)?
Response given: 15

Challenge: Consider the molecule shown here: CCCCCCOc1ccc(-c2ccc(OC(F)(F)F)cc2)cc1N(CCCCc1ccccc1)C(=O)C(=O)O What is its recorded Inhibition Rate of PAI-1 Activity (%)?
Response given: 22

----------
Would you mind telling me the reported Inhibition Rate of PAI-1 Activity (%) of each entry?
- Test System: recombinant human PAI-1 (Homo sapiens, UniProt P05121)
- Construct: purchased Molecular Innovations, Inc
- Sequence (P05121 24-402): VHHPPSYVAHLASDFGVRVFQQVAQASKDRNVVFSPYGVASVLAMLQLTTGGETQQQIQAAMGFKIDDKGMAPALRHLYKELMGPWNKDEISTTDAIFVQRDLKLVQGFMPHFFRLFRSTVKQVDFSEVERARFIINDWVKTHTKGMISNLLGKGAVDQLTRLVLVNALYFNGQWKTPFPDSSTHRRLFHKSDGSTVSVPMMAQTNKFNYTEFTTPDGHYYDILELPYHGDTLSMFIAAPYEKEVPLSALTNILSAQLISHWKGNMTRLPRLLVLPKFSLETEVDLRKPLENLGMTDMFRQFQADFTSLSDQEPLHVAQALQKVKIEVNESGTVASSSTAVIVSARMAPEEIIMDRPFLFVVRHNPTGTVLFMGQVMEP
- Measurement Notes: Test Example 1: human PAI-1 inhibitory activity (tPA fluorogenic substrate, pH 7.5 Tris buffer)
- Type: biochemical
- Run Conditions: Compound Concentration 10 μM; Tris buffer
Reply with just the number (in %).

Challenge: Consider the compound shown here: CC(C)(C)c1ccc(COc2ccc(Oc3ccc(OC(F)(F)F)cc3)cc2C=CC(=O)O)cc1 What is its recorded Inhibition Rate of PAI-1 Activity (%)?
Response given: 77

Challenge: Consider the compound shown here: CC(C)(C)c1ccc(N(C(=O)C(=O)O)c2ccccc2-c2ccc(OC(F)(F)F)cc2)cc1 What is its recorded Inhibition Rate of PAI-1 Activity (%)?
Response given: 56

Challenge: Consider the compound shown here: CCCCOc1ccc(-c2ccc(OC(F)(F)F)cc2)cc1N(CCCc1ccccc1)C(=O)C(=O)O What is its recorded Inhibition Rate of PAI-1 Activity (%)?
Response given: 89

Challenge: Consider the compound shown here: O=C(O)/C=C/c1cc(-c2ccc(OC(F)(F)F)cc2)ccc1OCc1cccc(C(F)(F)F)c1 What is its recorded Inhibition Rate of PAI-1 Activity (%)?
Response given: 53

Challenge: Consider the compound shown here: O=C(O)COc1cc(-c2ccc(OC(F)(F)F)cc2)ccc1OCCCCc1ccccc1 What is its recorded Inhibition Rate of PAI-1 Activity (%)?
Response given: 59

Challenge: Consider the compound shown here: Cc1cc(C)cc(CN(C(=O)C(=O)O)c2ccc(-c3ccc(OC(F)(F)F)cc3)cc2)c1 What is its recorded Inhibition Rate of PAI-1 Activity (%)?
Response given: 62

Challenge: Consider the compound shown here: CC(C)(C)c1ccc(CN(C(=O)CCC(=O)O)c2ccc(-c3ccc(OC(F)(F)F)cc3)cc2)cc1 What is its recorded Inhibition Rate of PAI-1 Activity (%)?
Response given: 69

Challenge: Consider the compound shown here: O=C(O)CCc1cc(-c2ccc(OC(F)(F)F)cc2)ccc1OCc1ccc(C(F)(F)F)cc1 What is its recorded Inhibition Rate of PAI-1 Activity (%)?
Response given: 13

----------
- Test System: recombinant human PAI-1 (Homo sapiens, UniProt P05121)
- Construct: purchased Molecular Innovations, Inc
- Measurement Notes: Test Example 1: human PAI-1 inhibitory activity (tPA fluorogenic substrate, pH 7.5 Tris buffer)
- Assay type: biochemical
- Run Conditions: Compound Concentration 25 μM; Tris buffer
Mark Criterion not met for Inhibition Rate of PAI-1 Activity (%) values under 90%, and Criterion met for everything at or above.

Challenge: Reported Inhibition Rate of PAI-1 Activity (%) reaches at least 90% for O=C(O)C(=O)N(Cc1ccc(Cl)cc1Cl)c1ccc(-c2ccc(OC(F)(F)F)cc2)cc1 ?
Response given: Criterion not met

Challenge: Reported Inhibition Rate of PAI-1 Activity (%) reaches at least 90% for CC(C)(C)c1ccc(CN(C(=O)C(=O)O)c2ccc(-c3cccc([N+](=O)[O-])c3)cc2)cc1 ?
Response given: Criterion not met

Challenge: Reported Inhibition Rate of PAI-1 Activity (%) reaches at least 90% for CC(C)(C)c1ccc(-c2ccc(N(Cc3ccccc3OC(F)(F)F)C(=O)C(=O)O)cc2)cc1 ?
Response given: Criterion met

Challenge: Reported Inhibition Rate of PAI-1 Activity (%) reaches at least 90% for CC(C)(C)c1ccc(COc2ccc(-c3ccccc3)cc2CCC(=O)O)cc1 ?
Response given: Criterion met

Challenge: Reported Inhibition Rate of PAI-1 Activity (%) reaches at least 90% for CC(C)(C)c1ccc(N(C(=O)C(=O)O)c2cccc(-c3ccc(OC(F)(F)F)cc3)c2)cc1 ?
Response given: Criterion met

Challenge: Reported Inhibition Rate of PAI-1 Activity (%) reaches at least 90% for CC(C)c1ccc(Oc2ccc(/C=C\C(=O)O)c(Oc3ccc(C(C)C)cc3)c2)cc1 ?
Response given: Criterion met

Challenge: Reported Inhibition Rate of PAI-1 Activity (%) reaches at least 90% for CC(C)(C)c1ccc(-c2ccc(N(Cc3ccc(OC(F)(F)F)cc3)C(=O)C(=O)O)cc2)cc1 ?
Response given: Criterion met

Challenge: Reported Inhibition Rate of PAI-1 Activity (%) reaches at least 90% for O=C(O)C(=O)N(Cc1ccccc1)c1c(Cl)cc(-c2ccc(OC(F)(F)F)cc2)cc1Cl ?
Response given: Criterion not met

Challenge: Reported Inhibition Rate of PAI-1 Activity (%) reaches at least 90% for CC(C)(C)c1ccc(COc2cc(CCC(=O)O)cc(Oc3ccc(OC(F)(F)F)cc3)c2)cc1 ?
Response given: Criterion met

Challenge: Reported Inhibition Rate of PAI-1 Activity (%) reaches at least 90% for O=C(O)/C=C/c1cc(-c2ccc(OC(F)(F)F)cc2)ccc1OCc1ccccc1 ?
Response given: Criterion not met

Challenge: Reported Inhibition Rate of PAI-1 Activity (%) reaches at least 90% for CC(C)Oc1ccc(N(CCCCc2ccccc2)C(=O)C(=O)O)cc1-c1ccc(OC(F)(F)F)cc1 ?
Response given: Criterion met

Challenge: Reported Inhibition Rate of PAI-1 Activity (%) reaches at least 90% for CC(C)(C)c1ccc(CN(C(=O)C(=O)O)c2ccc(Nc3ccc(OC(F)(F)F)cc3)cc2)cc1 ?
Response given: Criterion met

Challenge: Reported Inhibition Rate of PAI-1 Activity (%) reaches at least 90% for CN(C(=O)C(=O)O)c1ccc(OCc2ccc(OC(F)(F)F)cc2)c(OCc2ccc(OC(F)(F)F)cc2)c1 ?
Response given: Criterion not met

Challenge: Reported Inhibition Rate of PAI-1 Activity (%) reaches at least 90% for CC(C)(C)c1ccc(N(C(=O)C(=O)O)c2cccc(Oc3ccc(OC(F)(F)F)cc3)c2)cc1 ?
Response given: Criterion met
